- assayedSystem: T1, PUF4 RNA-binding domain (Saccharomyces cerevisiae, UniProt P25339 537-888)
- T1 sequence: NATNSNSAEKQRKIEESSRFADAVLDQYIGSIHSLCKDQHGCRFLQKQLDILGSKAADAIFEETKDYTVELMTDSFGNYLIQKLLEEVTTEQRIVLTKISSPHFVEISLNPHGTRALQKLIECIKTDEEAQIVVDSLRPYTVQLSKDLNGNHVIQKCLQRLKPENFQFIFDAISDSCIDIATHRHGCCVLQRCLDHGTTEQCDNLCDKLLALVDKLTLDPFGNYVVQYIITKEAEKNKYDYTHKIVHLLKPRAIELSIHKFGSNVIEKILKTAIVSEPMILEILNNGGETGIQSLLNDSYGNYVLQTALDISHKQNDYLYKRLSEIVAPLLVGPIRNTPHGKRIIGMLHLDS
- test: Mg; RNA-MaP; 20 mM Na-HEPES pH 7.4, 30 mM KOAc, 0.75 mM MgCl2, 0.1% Tween-20, 5% glycerol, 0.1 mg/mL BSA, 2 mM DTT; 25 C; 0.0125-409.6 nM protein
- conditionDescription: tags: N-His6-TEV cleaved; C-SNAP kept, Cy3B-labelled; label: tethered on chip by stalled RNA polymerase
endpointName: Kd (nM)

binder	observedMeasurement
Id_ii_S2_P5E.3_K5.2_C5.2_[T-1A]_H5.2_A5.1_F5.1_T5.2_[T11A]_[A12C] (ssRNA) RNA: UUUGAUUAAUAUGAUAUCGUUCUUUCUCAUAUAUUAUUAACUUCUUUCUCGAUAUCAUAUUAAUCUUU	96.4
UCUCUUUGUAGUAUUUUCUCUU (ssRNA) [Ib_S1_P5E.1_K5.1_C5.1_H5.1_A5.1_[T5G]_F5.1_[A10T]_T5.1]	101
UCUCUUUAUGUUAUUAUCUCUU (ssRNA) [Ib_S1_P5E.1_K5.1_C5.1_H5.1_[G2A]_[A4G]_A5.1_F5.1_T5.1]	2070
